The origin of these recorded values is ChEMBL document CHEMBL4052765.

Tested on: Streptococcus pyogenes
protocol_summary: Antibacterial activity against erythromycin-susceptible Streptococcus pyogenes after 24 h by NCCLS broth microdilution method
Assay type: functional
Hi there, I'd appreciate the recorded MIC for every entry that follows.
Mention the unit after the number when you answer.

Data request: Which value of MIC has been reported for CC[C@H]1OC(=O)[C@H](C)C(=O)[C@H](C)[C@@H](O[C@@H]2O[C@H](C)C[C@H](N(C)C)[C@H]2O)[C@](C)(OC)C[C@@H](C)C(=O)[C@H](C)[C@@H](OC(=O)NCCNC(=O)/C=C/c2ccc(F)cc2)[C@]1(C)O in the records?
Data returned: 2 µg/mL

Data request: Try this compound next: CC[C@H]1OC(=O)[C@H](C)C(=O)[C@H](C)[C@@H](O[C@@H]2O[C@H](C)C[C@H](N(C)C)[C@H]2O)[C@](C)(OC)C[C@@H](C)C(=O)[C@H](C)[C@@H](OC(=O)NCCNC(=O)/C=C/c2ccc(O)cc2)[C@]1(C)O
Data returned: 4 µg/mL

---

Test system: Staphylococcus aureus
protocol_summary: Antibacterial activity against erythromycin-susceptible Staphylococcus aureus ATCC 25923 after 24 h by NCCLS broth microdilution method
Assay type: functional
condition_info: ATCC 25923, 24 h
endpoint_name: MIC (µg/mL)
Return type: number; implicit unit µg/mL.

Data request: Which value of MIC has been reported for CC[C@H]1OC(=O)[C@H](C)C(=O)[C@H](C)[C@@H](O[C@@H]2O[C@H](C)C[C@H](N(C)C)[C@H]2O)[C@](C)(OC)C[C@@H](C)C(=O)[C@H](C)[C@@H](OC(=O)NCCNC(=O)/C=C/c2ccccc2Cl)[C@]1(C)O in the records?
Data returned: 32

Data request: Try this molecule next: CC[C@H]1OC(=O)[C@H](C)C(=O)[C@H](C)[C@@H](O[C@@H]2O[C@H](C)C[C@H](N(C)C)[C@H]2O)[C@](C)(OC)C[C@@H](C)C(=O)[C@H](C)[C@@H](OC(=O)NCCNC(=O)c2cccc(O)c2)[C@]1(C)O
Data returned: 128
